The measurements presented in this section are drawn from the supplement of paper PMC11061612.

# Test system: RL95-2 (Endometrial Carcinoma);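 also: after 72 h of two-drug dosing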
# Protocol Description: Bliss excess, mean over the matrix (fraction); higher = more synergy
Provide the recorded Bliss excess for the entries that follow.
Give bare numbers.

[[record]]
compound = "Cc1c2c(nn1C)CSCc1cc(n(C)n1)CSc1cc(c3ccccc3c1)OCCCc1c(C(=O)O)n(C)c3c-2c(Cl)ccc13 [AZD5991] + CN(C)CCCOc1ccc(-c2ccc3ncc4c(c3c2)n(C2CCOCC2)c(=O)n4C)cn1 [AZD0156] (first compound max 1 µM, 7x7, partner max 1 µM)"
measured_target = "RL95-2 (Endometrial Carcinoma)"
assay_value = -0.0252

[[record]]
compound = "CN(CCO)CC[C@H](CSc1ccccc1)Nc1ccc(S(=O)(=O)NC(=O)c2ccc(N3CCC([C@@H](O)c4ccccc4-c4ccc(Cl)cc4)CC3)cc2)cc1S(=O)(=O)C(F)(F)F [AZD4320] + CN(C)CCCOc1ccc(-c2ccc3ncc4c(c3c2)n(C2CCOCC2)c(=O)n4C)cn1 [AZD0156] (first compound max 1 µM, 7x7, partner max 1 µM)"
measured_target = "RL95-2 (Endometrial Carcinoma)"
assay_value = -0.0408

[[record]]
compound = "CCN(CCO)CCCOc1ccc2c(Nc3cc(CC(=O)Nc4cccc(F)c4)[nH]n3)ncnc2c1 [AZD2811] + O=C(c1cc(Cc2n[nH]c(=O)c3ccccc23)ccc1F)N1CCN(C(=O)C2CC2)CC1 [Olaparib] (first compound max 1 µM, 7x7, partner max 10 µM)"
measured_target = "RL95-2 (Endometrial Carcinoma)"
assay_value = -0.0101

[[record]]
compound = "COc1cccc2c1C(=O)c1c(O)c3c(c(O)c1C2=O)C[C@@](O)(C(=O)CO)C[C@@H]3O[C@H]1C[C@H](N)[C@H](O)[C@H](C)O1 [Doxorubicin] + Cc1cc2ncnn2cc1Nc1ncc2c(n1)n(C1CCOCC1)c(=O)n2C [AZD7648] (first compound max 1 µM, 7x7, partner max 10 µM)"
measured_target = "RL95-2 (Endometrial Carcinoma)"
assay_value = -0.0064

[[record]]
compound = "COc1cccc(OCCCN)c1-c1cc(Nc2cnc(C#N)cn2)n[nH]1 [Prexasertib] + O=C(c1cc(Cc2n[nH]c(=O)c3ccccc23)ccc1F)N1CCN(C(=O)C2CC2)CC1 [Olaparib] (first compound max 1 µM, 7x7, partner max 10 µM)"
measured_target = "RL95-2 (Endometrial Carcinoma)"
assay_value = -0.0343

[[record]]
compound = "NC1(C(=O)N[C@@H](CCO)c2ccc(Cl)cc2)CCN(c2ncnc3[nH]ccc23)CC1 [Capivasertib] + CC(C)n1c(=O)n(C)c2cnc3cc(F)c(-c4ccc(OCCCN5CCCCC5)nc4)cc3c21 [AZD1390] (first compound max 10 µM, 7x7, partner max 0.3 µM)"
measured_target = "RL95-2 (Endometrial Carcinoma)"
assay_value = -0.0709


Now for a further compound.
Fill blank: measured Bliss excess of the compound CN(CCO)CC[C@H](CSc1ccccc1)Nc1ccc(S(=O)(=O)NC(=O)c2ccc(N3CCC([C@@H](O)c4ccccc4-c4ccc(Cl)cc4)CC3)cc2)cc1S(=O)(=O)C(F)(F)F [AZD4320] + Cn1cnc2c(F)c(Nc3ccc(Br)cc3Cl)c(C(=O)NOCCO)cc21 [Selumetinib] (first compound max 1 µM, 7x7, partner max 3 µM) is ____. 0.137

----------
Give measured combination Emax for each item. Keep answers brief.
# Test system: NKM-1 (Acute Myeloid Leukemia)
# Protocol Description: combination Emax (second highest fraction inhibited in the dose matrix, 72 h); higher = more inhibition; extreme values may be limits of the assay
Give bare numbers.

[[record]]
compound = "CC(=O)c1c(C)c2cnc(Nc3ccc(N4CCNCC4)cn3)nc2n(C2CCCC2)c1=O [Palbociclib] + Cn1cnc2c(F)c(Nc3ccc(Br)cc3Cl)c(C(=O)NOCCO)cc21 [Selumetinib] (first compound max 10 µM, 7x7, partner max 10 µM)"
endpoint_name = "combination Emax"
assay_value = 0.944

[[record]]
compound = "Cc1c2c(nn1C)CSCc1cc(n(C)n1)CSc1cc(c3ccccc3c1)OCCCc1c(C(=O)O)n(C)c3c-2c(Cl)ccc13 [AZD5991] + CCN(CCO)CCCOc1ccc2c(Nc3cc(CC(=O)Nc4cccc(F)c4)[nH]n3)ncnc2c1 [AZD2811] (first compound max 1 µM, 7x7, partner max 1 µM)"
endpoint_name = "combination Emax"
assay_value = 0.969


Item CN(CCO)CC[C@H](CSc1ccccc1)Nc1ccc(S(=O)(=O)NC(=O)c2ccc(N3CCC([C@@H](O)c4ccccc4-c4ccc(Cl)cc4)CC3)cc2)cc1S(=O)(=O)C(F)(F)F [AZD4320] + Nc1ccn([C@@H]2O[C@H](CO)[C@@H](O)C2(F)F)c(=O)n1 [Gemcitabine] (first compound max 1 µM, 7x7, partner max 0.3 µM) has what recorded combination Emax? 1
